The entries below come with measured growth values attached.
- System: DU-145 prostate
- Experiment Notes: NCI-60 one-dose screen, 48 h (100 = growth as untreated, 0 = no growth, -100 = all killed)
- Experimental Context: 10 µM unless noted
- Description: Cells are grown in 96 well plates and exposed to the test compound for 48 hours. Compounds are tested at a single concentration, which is 10^-5 M for most compounds. The reported endpoint is percent growth (GI% or GIPRCNT), where numbers from 0 - 100% represent growth inhibition, and numbers from -100% - 0 represent cell death. For example, a value of 40 represents 60% growth inhibition. A value of 0 means no net growth occurred over the course of the experiment. […]
Compounds without any hit were thinned out: in the full panel of roughly 83,000, 20% have a hit.
Write the value in % as a bare number.

Recorded results for 8 compounds are shown here.
* O=C(NC1CCCCCC1)c1ccc2c(=O)n3c(nc2c1)CCCCC3 | 94.3
* CO[C@H]1CC(c2ccc[nH]2)=N[C@]12O[C@@H](C)C[C@@H]1CCCCCCCc3ccc([nH]3)[C@H]12 | 30.3
* CN1CCN(CC(=O)N(C)c2ccc(N=C(c3ccccc3)c3c(O)[nH]c4ccc([N+](=O)[O-])cc34)cc2)CC1 | 51.3
* C#CCOc1ccc(C2=NN(CCCC)C3N=C(Cl)c4ncn(CCCC)c4N23)cc1OCC#C (centres undefined) | 94.1
* CCN(CC)c1ccc(/C=N/NC(=O)c2ccccc2Nc2ccnc(C(F)(F)F)c2)c(O)c1 | 20.7
* CCN1C(=O)N(CC)C2C1NN=c1s/c(=C\c3ccc([N+](=O)[O-])cc3)c(=O)n12 (centres undefined) | 19.9
* Cc1ccc(NC(=O)c2ccc(Nc3ncnc4c3cnn4-c3cccc(F)c3)cc2)cc1 | 104
* Cn1cc(-c2csc(-c3cn(CCO)c4ccc(F)cc34)n2)c2cccnc21 | 95.4

Attention now turns to another entry.
Look at this compound and give its reported growth. Cc1ccc2c(c1)CC(O)CC1C(=O)N(CCO)CC(=O)N21 (centres undefined)
111
